Numbers sourced from paper PMC3662613.

# System: HCT15
# experiment-notes: Cytotoxicity / antiproliferative activity
# Format: cell-based
# recorded-conditions: Homo sapiens, HCT-15, 24 h, read-out: Cytotoxicity GI50 HCT15 24 h
// map GI50 to label using low bin (below 3 µM), mid bin (3 µM to below 30 µM), high bin (30 µM or more)

Example entries begin here.
[
  {
    "molecule": "CCN(CC)CCOc1cccc2c(NCc3ccccc3)nc(N3CCOc4ccccc43)nc12 [compound 35]",
    "qualitative-label": "mid bin"
  },
  {
    "molecule": "c1ccc(CNc2nc(N3CCOc4ccccc43)nc3c2CCCC3)cc1 [ML241]",
    "qualitative-label": "high bin"
  },
  {
    "molecule": "c1ccc(CNc2nc(N3CCOc4ccccc43)nc3ccccc23)cc1 [compound 15]",
    "qualitative-label": "mid bin"
  }
]

### Prompt Band for the recorded GI50 of COc1cccc2c(NCc3ccccc3)nc(NCc3ccccc3)nc12 [compound 14] ?
### Response low bin

### Prompt Bin this entry: c1ccc(CNc2nc(N3CCOc4ccccc43)nc3ccsc23)cc1 [compound 17]
### Response high bin

### Prompt Which bin should I file COc1cccc2c(NCc3ccccc3)nc(-n3c(N)nc4ccccc43)nc12 [ML240] under?
### Response low bin

### Prompt Could you tell me which band OCCOc1cccc2c(NCc3ccccc3)nc(N3CCOc4ccccc43)nc12 [compound 33] belongs to?
### Response mid bin

### Prompt Into which bin does this molecule go? COc1cccc2c(NCc3ccc(F)cc3)nc(N3CCOc4ccccc43)nc12 [compound 40]
### Response mid bin

----------
# System: SW403
# experiment-notes: Cytotoxicity / antiproliferative activity
# Assay type: cell-based
# recorded-conditions: Homo sapiens, SW-403, 72 h, read-out: Cytotoxicity GI50 SW403 72 h
Field: label. Allowed values: criterion met (GI50 < 4 µM) or criterion not met (GI50 >= 4 µM).

Past entries and their recorded results:
[
  {
    "chem-smiles": "COc1cccc2c(NCc3ccccc3)nc(-n3c(N)nc4ccccc43)nc12",
    "target-under-test": "SW403",
    "qualitative-label": "criterion met"
  },
  {
    "chem-smiles": "c1ccc(CNc2nc(N3CCOc4ccccc43)nc3ccsc23)cc1",
    "target-under-test": "SW403",
    "qualitative-label": "criterion not met"
  },
  {
    "chem-smiles": "c1ccc(CNc2nc(NCc3ccccc3)c3ccccc3n2)cc1",
    "target-under-test": "SW403",
    "qualitative-label": "criterion met"
  }
]

Shift focus to the following entry.
### Prompt Say whether its GI50 is strictly beneath 4 µM. Entry: c1ccc(CNc2nc(N3CCOc4ccccc43)nc3c2CCCC3)cc1
### Response criterion not met

----------
# experiment-notes: Plasma protein binding
# Format: in vitro ADME
# recorded-conditions: mouse
fraction unbound at 1 μM: recorded values
Lab note: record just the number, no unit beside it.

[
  {
    "chem-smiles": "c1ccc(CNc2nc(N3CCOc4ccccc43)nc3c2CCCC3)cc1",
    "value": 0.0005
  }
]

Now take the following compound into account.
### Prompt What value of fraction unbound at 1 μM has been recorded for this entry: COc1cccc2c(NCc3ccccc3)nc(-n3c(N)nc4ccccc43)nc12
### Response 0.0027

----------
# target-under-test: p97 ATPase (Homo sapiens)
# Sequence (P55072 whole entry): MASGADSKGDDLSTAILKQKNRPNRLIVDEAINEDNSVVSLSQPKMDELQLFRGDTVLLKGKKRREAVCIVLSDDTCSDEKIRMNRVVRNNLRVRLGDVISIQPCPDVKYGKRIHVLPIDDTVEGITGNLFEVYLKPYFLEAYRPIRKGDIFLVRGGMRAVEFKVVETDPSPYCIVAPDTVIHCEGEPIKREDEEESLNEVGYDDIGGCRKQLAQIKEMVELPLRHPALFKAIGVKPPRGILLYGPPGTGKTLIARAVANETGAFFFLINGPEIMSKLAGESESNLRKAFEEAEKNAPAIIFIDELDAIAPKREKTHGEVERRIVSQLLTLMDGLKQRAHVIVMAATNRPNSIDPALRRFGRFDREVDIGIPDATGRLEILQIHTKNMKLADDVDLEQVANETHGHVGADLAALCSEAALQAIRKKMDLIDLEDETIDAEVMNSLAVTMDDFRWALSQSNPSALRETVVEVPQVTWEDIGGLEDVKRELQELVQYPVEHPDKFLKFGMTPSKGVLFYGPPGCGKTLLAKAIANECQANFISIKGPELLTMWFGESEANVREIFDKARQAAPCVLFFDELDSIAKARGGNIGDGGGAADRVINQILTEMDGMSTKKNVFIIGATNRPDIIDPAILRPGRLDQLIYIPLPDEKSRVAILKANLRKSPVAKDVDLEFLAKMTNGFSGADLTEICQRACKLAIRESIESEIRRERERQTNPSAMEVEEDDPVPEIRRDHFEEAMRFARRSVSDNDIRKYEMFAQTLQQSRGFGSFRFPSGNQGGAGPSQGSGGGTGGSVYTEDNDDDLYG
property-label: pKi
A value of pKi is the negative decimal logarithm of a concentration given in moles per litre.

[
  {
    "molecule": "COc1cccc2c(NCc3ccccc3)nc(-n3c(N)nc4ccccc43)nc12 [ML240]",
    "pKi": 6.66
  }
]

### Prompt Identify the measured pKi of c1ccc(CNc2nc(N3CCOc4ccccc43)nc3c2CCCC3)cc1 [ML241] for p97 ATPase (Homo sapiens).
### Response 6.46
